Test system: Human alphaherpesvirus 1
Assay: Antiviral activity against HSV1 MacIntyre replication in african green monkey Vero cells assessed as inhibition of virus-induced cytopathic effect after 48 hrs
Assay type: functional, organism-based
Settings: Human alphaherpesvirus 1, MacIntyre
OBSERVABLE: IC50 (µg/mL)
Form entry: value (µg/mL) — number only.

Check out these entries, answers already filled in.
COMPOUND	TEST SYSTEM	OBSERVABLE	RESULT NUMBER
C=C(C)[C@@H]1CC[C@]2(C)[C@H](CC[C@@H]3[C@@H]([C@@](C)(O)CCC=C(C)C)CC[C@]32C)[C@@]1(C)CCC(=O)O	Human alphaherpesvirus 1	IC50	3
CC(C)=CCC[C@](C)(O)[C@H]1CC[C@]2(C)[C@@H]1CC[C@@H]1[C@@]3(C)CC[C@H](O)C(C)(C)[C@@H]3CC[C@]12C	Human alphaherpesvirus 1	IC50	7
CC(C)=CCC[C@@](C)(O)[C@H]1CC[C@]2(C)[C@@H]1CC[C@@H]1[C@@]3(C)CCC(=O)C(C)(C)[C@@H]3CC[C@]12C	Human alphaherpesvirus 1	IC50	2
C=C(CCC=C(C)C)[C@H]1CC[C@]2(C)[C@@H]1CC[C@@H]1[C@@]3(C)CC[C@H](O)C(C)(C)[C@@H]3CC[C@]12C	Human alphaherpesvirus 1	IC50	2.5

Let us move to another entry and its IC50.
Reported IC50 ( CC(C)(O)[C@H]1CC[C@@]2(C)C1CC[C@]1(C)[C@@H]2CC[C@@H]2[C@@]3(C)CCC(=O)C(C)(C)[C@@H]3CC[C@]21C (stereo not given in full) [HYDROXYHOPANONE] ) = 7

###

Test system: Human alphaherpesvirus 1
Test: Antiviral activity against HSV1 MacIntyre replication in african green monkey Vero cells assessed as inhibition of virus-induced cytopathic effect after 48 hrs
Assay type: functional, organism-based
Conditions: Human alphaherpesvirus 1, MacIntyre
OBSERVABLE: IC50 (µg/mL)
Number only, in µg/mL; omit the unit.

COMPOUND	IC50, µg/mL
C=C(C)[C@@H]1CC[C@]2(C)[C@H](CC[C@@H]3[C@@H]([C@]4(C)CC[C@H](C(C)(C)O)O4)CC[C@]32C)[C@@]1(C)CCC(=O)O	7
C[C@H]1[C@H](C)CC[C@]2(C(=O)O)CC[C@]3(C)C(=CC[C@@H]4[C@@]5(C)CCC(=O)C(C)(C)[C@@H]5CC[C@]43C)[C@H]12	2.5
C=C(C)[C@@H]1CC[C@]2(C)[C@H](CC[C@@H]3[C@@H]([C@]4(C)CC[C@@H](C(C)(C)O)O4)CC[C@]32C)[C@@]1(C)CCC(=O)O	7

Attention now shifts to the item below.
Entry CC1(C)CC[C@@]23CC[C@]4(C)[C@@](OC2=O)([C@@H]3C1)[C@@H](O)C[C@@H]1[C@@]2(C)CCC(=O)C(C)(C)[C@@H]2CC[C@]14C , IC50 reported as 5

Values from ChEMBL document CHEMBL1150724
